- assay protocol: pKa (Table 1)
- Assay type: physicochemical
recorded metric: pKa

[[record]]
compound = "C[C@H]1N[C@@H](CO)[C@@H](O)[C@H](O)[C@@H]1O [(6)]"
observed_measurement = 7.7

[[record]]
compound = "C[C@@H]1NC[C@@H](O)[C@H](O)[C@@H]1O [DFJ, 1,5-Dideoxy-1,5-imino-L-fucitol]"
observed_measurement = 8.4

